Assay: 14-day rat toxicology study
Assay type: in vivo
Details: rat, plasma, 3 mg/kg; female rats, Day 14; read-out: estimated human Cmax based on the lowest NOAEL Day 14 Cmax in female rats
Method: The compound was assessed in 14-day rat and dog toxicology studies with daily administration of Compound 9 as a solution in HPBCD in dogs and Labrasol® in rats. The NOAEL in rats was 3 mg/kg (females) and 22.5 mg/kg (males), and was 2.5 mg/kg in dogs. […] A single observation of mortality occurred in one female rat at the high dose in a toxicokinetic study which was suspected to have been related to exaggerated pharmacology.
Value Kind: Cmax
Could you kindly put the unit after your number?

Cmax measured on C[C@@]1(O)CC[C@H]2[C@H](CC[C@@H]3[C@@H]2CC[C@]2(C)[C@@H](C(=O)Cn4cc(C#N)cn4)CC[C@@H]32)C1 = 400 ng/mL

----------
Experiment: 14-day rat toxicology study
Format: in vivo
Conditions: plasma, 22.5 mg/kg; male rat 14-day toxicology; read-out: AUC at lowest NOAEL exposure in toxicology studies
Value Kind: AUC at 14 day (ng·h/mL)
One number for each entry, in ng·h/mL.

AUC at 14 day measured on C[C@@]1(O)CC[C@H]2[C@H](CC[C@@H]3[C@@H]2CC[C@]2(C)[C@@H](C(=O)Cn4cc(C#N)cn4)CC[C@@H]32)C1 [Compound 9] = 5050

----------
Assay: 14-day rat toxicology study
Type: in vivo
Details: rat, in vivo; male rats; 14-day daily administration, solution in Labrasol
Value Kind: NOAEL at 14 days (mg/kg)
One number for each entry, in mg/kg.

NOAEL at 14 days measured on C[C@@]1(O)CC[C@H]2[C@H](CC[C@@H]3[C@@H]2CC[C@]2(C)[C@@H](C(=O)Cn4cc(C#N)cn4)CC[C@@H]32)C1 = 22.5

----------
Experiment: 14-day rat toxicology study
Format: in vivo
Conditions: rat, in vivo; female rats; 14-day daily administration, solution in Labrasol
Value Kind: NOAEL at 14 days (mg/kg)
One number for each entry, in mg/kg.

NOAEL at 14 days measured on C[C@@]1(O)CC[C@H]2[C@H](CC[C@@H]3[C@@H]2CC[C@]2(C)[C@@H](C(=O)Cn4cc(C#N)cn4)CC[C@@H]32)C1 [Compound 9] = 3
